Test: qHTS for compounds that reverse cellular toxicity of Amyloid beta (A-beta) peptide in yeast: Primary Screen; note: nearly all actives have a fitted effect of over 55% in size
Details: yeast expressing A-beta42, growth rescue, OD600, 48 h; series mostly up to 46.1 µM
About 260 (0.063%) of roughly 410,000 compounds were called active. About 2% were inconclusive and are not listed. Calls come from the whole dose curve; as a rule, active = well fitted activation curve with a large enough effect; inconclusive = small, poorly fitted or top-dose-only effect; inactive = no such curve, though single readings can be large or run the other way. This excerpt belongs to a sample that is enriched for actives.
Outcomes: true (1) for active, false (0) for inactive

1) Cc1ccc(-n2nnnc2CNC(=O)c2ccccc2C)cc1C | false (0)
2) CCN(c1ncnc2c1cnn2-c1ccc(C)cc1)C1CCCCC1 | false (0)
3) CCOC(=O)c1c(NC(=O)/C(C#N)=C/c2ccccc2)sc2c1CCC2 | false (0)
4) COc1ccc(-c2cc(NCc3ccc(F)cc3)n3cnnc3n2)cc1 | false (0)
5) C#CCOc1ccc(C2CC(=O)Nc3c2c(C)nn3-c2nc(C)cc(C)n2)cc1 (stereo not given) | false (0)
6) CCCc1nc2c3ccccc3ccn2c1Cc1ccccc1C(F)(F)F | false (0)
7) CCOC(=O)c1cnc2c(C)cc(C)cc2c1Nc1ccc(N2CCOCC2)cc1 | false (0)
8) COc1ccc(CCN2C(=O)c3oc4cc(C)cc(C)c4c(=O)c3C2c2ccccc2F)cc1OC (stereo not given) | false (0)
9) COc1cc(OC)c(NC(=O)N2CC3CCCN3c3ccccc32)cc1Cl (stereo not given) | false (0)
10) COc1ccc(NC(=O)NC(C)c2c(-n3cccc3)sc(C)c2C)cc1OC (stereo not given) | false (0)
11) CC1=C(C(=O)Nc2ccccc2Cl)C(c2cccs2)n2ncnc2N1 (stereo not given) | false (0)
12) Cc1nnc(N2CCC(C(=O)Nc3ccc(F)cc3)CC2)c2nn(-c3ccc(Cl)cc3)c(C)c12 | false (0)
13) COc1ccc(OC)c(-n2nnc3c(sc4nc(C)c(Br)c(C)c43)c2=O)c1 | false (0)
14) CC1=C(c2ccc(C)cc2)S(=O)(=O)NC1=NCCCN1CCN(c2cc(C)ccc2C)CC1 | false (0)
15) COc1ccccc1N1CCN(C(=O)C2CCN(S(=O)(=O)c3c(C)noc3/C=C/c3ccc(C)cc3)CC2)CC1 | false (0)
16) COc1cc(C(=O)Nc2ccc(OCc3cc(=O)n4cc(C)sc4n3)cc2)cc(OC)c1OC | false (0)
17) Cc1c(NC(=O)C(C)(C)C)cccc1-c1nc2ccccc2s1 | false (0)
18) COCCNc1ncnc2c1c(-c1ccccc1)cn2-c1ccc(C)c(Cl)c1 | false (0)
19) COc1ccc(-c2cn3nc(N4CCCC(C(=O)NCCCOC(C)C)C4)sc3n2)cc1 (stereo not given) | false (0)
20) CCOC(=O)c1cccc(NC(=O)C(Cc2ccccc2)NS(=O)(=O)c2cccc3nsnc23)c1 (stereo not given) | false (0)
21) CCOc1ccc(-n2c(C)nc3c(cnn3-c3ccc(C)cc3)c2=O)cc1 | false (0)
22) O=C(Nc1c(C(=O)N2CCN(c3ccc(F)cc3)CC2)oc2ccccc12)c1ccco1 | false (0)
23) Cc1ccc(C)c(Cn2c(=O)n(CCC(=O)NCc3ccc4c(c3)OCO4)c(=O)c3sccc32)c1 | false (0)
24) Cc1ccc(N(CC(=O)NCc2ccc(Cl)cc2)S(=O)(=O)N(C)C)cc1 | false (0)
25) COc1ccc(OC)c(CNC(=O)Cn2nc(C)c3c(C)n(-c4ccccc4)nc3c2=O)c1 | false (0)
26) Cc1ccccc1-n1c(=O)c2ccccc2n(Cc2ccc(F)cc2)c1=O | false (0)
27) O=C(NC1CCCCC1)c1ccc2c(c1)N(Cc1ccc(Cl)cc1)C(=O)c1ccccc1S2=O (stereo not given) | false (0)
28) Cc1cccc(Cn2c(CN3CCC(C(=O)NCc4ccccc4Cl)CC3)cc3ccccc32)c1 | false (0)
29) O=C(CSc1ccc([N+](=O)[O-])cn1)Nc1ccc(N2CCOCC2)c(Cl)c1 | true (1)
30) CCCCN(C)S(=O)(=O)c1ccc(C(=O)Nc2sc3c(c2C(N)=O)CC(C)(C)NC3(C)C)cc1 | false (0)
31) O=C(CSc1nccc(=O)[nH]1)Nc1ccc(N2CCOCC2)c(Cl)c1 | false (0)
32) CCn1c(CN2CCC(C)CC2)nc2cc(NC(=O)c3ccccc3[N+](=O)[O-])ccc21 | false (0)
33) CCn1cc(C(=O)N2CCN(c3cc(C)ccc3C)CC2)c(=O)c2cc(S(=O)(=O)N(C)C3CCCCC3)ccc21 | false (0)
34) COc1cc(OC)c(NC(=O)c2nc(-c3ccncc3)no2)cc1Cl | false (0)
35) CCN(CCCNC(=O)c1ccc(Sc2ccc(C)cc2)c(NC(C)=O)c1)c1cccc(C)c1 | false (0)
36) COc1cccc(CN2CCc3nc(SCC(=O)Nc4ccccc4)[nH]c(=O)c3C2)c1 | false (0)
37) CCOc1ccc(C(=O)NC(=S)Nc2ccc(N3CCOCC3)c(Cl)c2)cc1[N+](=O)[O-] | false (0)
38) N#Cc1ccc(-c2nc3c(Cl)cc(C(F)(F)F)cn3c2Cc2ccccc2C(F)(F)F)cc1 | false (0)
39) COc1ccc(OCCCn2c(C)nc3cc(C)c(C)cc32)cc1 | false (0)
40) CCOc1ccc(CNC(=O)c2ccc(CS(=O)c3ccccc3)o2)cc1 (stereo not given) | false (0)

----------
Assay: qHTS for compounds that reverse cellular toxicity of Amyloid beta (A-beta) peptide in yeast: Primary Screen; note: nearly all actives have a fitted effect of over 55% in size
Details: yeast expressing A-beta42, growth rescue, OD600, 48 h; series mostly up to 46.1 µM
Hit rate of the full screen: of about 410,000 compounds, about 260 (0.063%) were called active. Roughly 2% stayed inconclusive and do not appear here. The sample holds actives, similar compounds and a random draw of the others, so the mix is not that of the screen.
result type: outcome

1. Cc1onc(-c2ccc(F)cc2F)c1C(=O)Nc1cccc(C(F)(F)F)c1 | inactive
2. O=c1cc(COc2cccc(C(F)(F)F)c2)nc2sc3c(n12)CCCC3 | inactive
3. COc1ccc(C2=NC(c3ccncc3)=Nc3ccc(Br)cc3N2)cc1 | inactive
4. CCOc1ccccc1C(=O)Nc1ccc(S(=O)(=O)N2CCCCC2c2cccnc2)cc1 (stereo not given) | inactive
5. CCC(=O)Nc1ccccc1-c1nc2ccccc2n(CC(=O)Nc2ccc(C)c(C)c2)c1=O | inactive
6. COc1ccc2cc(CNc3ccc(OC)c(OC)c3)c(=O)n(CC(=O)Nc3ccccc3F)c2c1 | inactive
7. Cc1cc(=O)c2cc(C(=O)Nc3cccc(C)c3C)ccc2[nH]1 | inactive
8. CCOC(=O)c1ccc(NC(=O)c2c(NCc3cccc(OC)c3)sc3c2CCC3)cc1 | inactive
9. CCCNc1ncnc2c1c(-c1ccccc1)cn2-c1ccc(OCC)cc1 | inactive
10. Cc1ccc(C(=O)Nc2ccc3[nH]c(=O)c(=O)[nH]c3c2)cc1 | inactive

----------
Experiment: qHTS for compounds that reverse cellular toxicity of Amyloid beta (A-beta) peptide in yeast: Primary Screen; note: nearly all actives have a fitted effect of over 55% in size; note: potency is the fitted concentration of half-maximal effect
Details: yeast expressing A-beta42, growth rescue, OD600, 48 h; series mostly up to 46.1 µM
In all, about 410,000 compounds went through this assay and about 260 (0.063%) were called active. Inconclusive results (about 2%) are left out. The full list was thinned out, with actives kept by preference.
result type: Potency

1. COc1ccc(-c2onc(C)c2C)cc1S(=O)(=O)NCc1cccs1 | inactive
2. CCOC(=O)c1c(NC(=O)CSc2cn(CCNC(=O)c3cccc(C(F)(F)F)c3)c3ccccc23)sc2c1CCC2 | inactive
3. COc1ccc(C(=O)NC(=S)NC2CCCCC2)cc1 | 12.6 µM (active)
4. Cc1ccc(Oc2c(C(F)(F)F)oc3c(CN4CCCCC4)c(O)ccc3c2=O)cc1 | inactive
5. Cc1ccc2oc3c(c(=O)c2c1)C(c1ccc(O)cc1)N(Cc1ccc2c(c1)OCO2)C3=O (stereo not given) | inactive

----------
Assay: qHTS for compounds that reverse cellular toxicity of Amyloid beta (A-beta) peptide in yeast: Primary Screen; note: nearly all actives have a fitted effect of over 55% in size
Conditions: yeast expressing A-beta42, growth rescue, OD600, 48 h; series mostly up to 46.1 µM
About 260 (0.063%) of roughly 410,000 compounds were called active. Roughly 2% stayed inconclusive and do not appear here. What follows is part of a selection rich in actives, with near analogues and random picks from the rest.
result type: outcome

1) Cc1ccc2nc(COc3cccc(NC(=O)c4cccc(Cl)c4)c3)cc(=O)n2c1 | inactive
2) CCS(=O)(=O)N1CCC(n2c(C)nc3cccnc32)CC1 | inactive
3) CCN(C(=O)Cn1cc(S(=O)(=O)N2CCN(c3ccccc3F)CC2)c2ccccc2c1=O)c1ccc(C)c(C)c1 | inactive
4) COc1ccc(Cn2c(C(=O)O)c(CNCc3cccc(OC)c3)c3ccc(C)cc32)cc1 | inactive
5) O=C(CSc1nnc(-c2ccccc2F)o1)Nc1cccc(C(F)(F)F)c1 | inactive
6) Cn1c(=O)cc(OCC(=O)N2CCN(c3ccccc3)CC2)c2ccccc21 | inactive
7) Cc1cccc(OCCSc2nc3ccccc3n2CC(=O)N2CCCCC2)c1C | inactive
8) COc1cccc(C(=O)NC2(C(F)(F)F)C(=O)Nc3c2c(=O)[nH]c(=O)n3-c2ccc(C)cc2)c1 (stereo not given) | inactive
9) CCc1ccccc1NC(=O)N1CCN(C(=O)c2nsc3ccccc23)CC1 | inactive
10) CCc1ccc(NC(=O)CN2C(=O)C(c3ccccc3)=NC23CCCCCC3)cc1 | inactive
11) CCn1c2c(c(=O)n3ncc(C(=O)N4CCN(c5ccccc5)CC4)c13)CN(Cc1ccc(OC)cc1)CC2 | inactive
12) COc1cc(C(=O)Nc2ccc(-n3c(C)nc4ccccc4c3=O)cc2)cc(OC)c1OC | inactive
13) Cc1nn(-c2ccc(F)cc2)c(-n2cccc2)c1C(=O)N1CCN(c2ccccc2)CC1 | inactive
14) O=S(=O)(Nc1ccc2nc(-c3cccc(Cl)c3)oc2c1)c1ccccc1 | inactive
15) Cc1nnc(N2CCCC(C(=O)NCCN(C)C)C2)c2nn(-c3ccccc3)c(C)c12 (stereo not given) | inactive
16) O=C(CCC1N=C2c3ccccc3N=C(SCc3ccccc3F)N2C1=O)NCCc1ccccc1 (stereo not given) | inactive
17) CCOC(=O)c1cc(NC(=O)c2ccc(F)cc2)c(=O)n2c1oc1ccccc12 | inactive
18) CNS(=O)(=O)c1ccc2c(c1)[nH]c(=S)n2C | inactive
19) O=C(NC1CC(=O)N(c2ccccc2)C1)c1ccco1 (stereo not given) | inactive
20) CCc1cccc(NC(=O)Cn2nc(CC)n3c(cc4cc(C)ccc43)c2=O)c1 | inactive
